Ki, MASP-2 (CCP1-CCP2-SP) (Homo sapiens, UniProt O00187), per-entry values.
Where a name gives a salt, the structure may show the parent alone.

Check out these entries, answers already filled in.
{"columns": ["COMPOUND", "Ki"],
 "data": [
  ["O=C(NCc1cc2c(s1)CNC2)[C@@H]1CCc2cnc(NC3(c4ccccc4)CCC3)c(=O)n21 [Compound 261, trifluoroacetate]", "< 500 nM"],
  ["Cc1nc(N)ccc1CNC(=O)[C@@H]1CCc2c(Cl)nc(NCc3cccc(S(C)(=O)=O)c3)c(=O)n21 [Compound 98, trifluoroacetate]", "< 500 nM"]
]}

Input: Send back MASP-2 (CCP1-CCP2-SP) (Homo sapiens, UniProt O00187) Ki of Cc1nc(N)ccc1CNC(=O)[C@@H]1CCc2cnc(NCc3cnn(-c4ccccc4)c3)c(=O)n21 [Compound 166, trifluoroacetate] only.
Output: < 500 nM
